Target: Adenosine receptor A1 (Rattus norvegicus)
Assay: Displacement of [3H]CCPA from A1 receptor in rat brain cortex membranes at 1.5 uM by liquid scintillation counting method
Format: cell membranes
measured-quantity: Activity (%)
The reply should be a number in %, with the unit left off.

## Input Indicate its recorded Activity; the compound in question is `Cn1c(=O)c2c(nc3n2CCN([C@H]2CCc4ccccc42)C3)n(C)c1=O`
## Output 29

## Input Look up and state reported Activity for `Cn1c(=O)c2c(nc3n2CCN(CCc2ccc(Cl)cc2)C3)n(C)c1=O`
## Output 22

## Input Give me measured Activity, please, for this compound: `Cn1c(=O)c2c(nc3n2CCN(c2ccccc2)C3)n(C)c1=O`
## Output 12

## Input Please look at this compound and report its Activity: `Cc1cc(CN2CCn3c(nc4c3c(=O)n(C)c(=O)n4C)C2)n(C)n1`
## Output 15

## Input Specify Activity for `Cn1c(=O)c2c(nc3n2CCN(CCc2cc(C(F)(F)F)ccc2F)C3)n(C)c1=O` and stop.
## Output 4

## Input Consider the compound `COc1cccc(CCN2CCn3c(nc4c3c(=O)n(C)c(=O)n4C)C2)c1` and give its recorded Activity.
## Output 17

## Input Please report the measured Activity for `Cn1c(=O)c2c(nc3n2CCN(CCc2ccccc2Cl)C3)n(C)c1=O`
## Output 32

## Input Report measured Activity; entry is `Cn1c(=O)c2c(nc3n2CCN(CCc2ccc(Cl)c(Cl)c2)C3)n(C)c1=O`
## Output 35

## Input Report Activity for `Cn1c(=O)c2c(nc3n2CCN(c2ccc(Cl)cc2)C3)n(C)c1=O`
## Output 1

## Input Return the recorded Activity value; entry: `Cn1c(=O)c2c(nc3n2CCN(CCc2cccc(Br)c2)C3)n(C)c1=O`
## Output 26

* * *

Target: UniProt P21397
Sequence (P21397 whole entry): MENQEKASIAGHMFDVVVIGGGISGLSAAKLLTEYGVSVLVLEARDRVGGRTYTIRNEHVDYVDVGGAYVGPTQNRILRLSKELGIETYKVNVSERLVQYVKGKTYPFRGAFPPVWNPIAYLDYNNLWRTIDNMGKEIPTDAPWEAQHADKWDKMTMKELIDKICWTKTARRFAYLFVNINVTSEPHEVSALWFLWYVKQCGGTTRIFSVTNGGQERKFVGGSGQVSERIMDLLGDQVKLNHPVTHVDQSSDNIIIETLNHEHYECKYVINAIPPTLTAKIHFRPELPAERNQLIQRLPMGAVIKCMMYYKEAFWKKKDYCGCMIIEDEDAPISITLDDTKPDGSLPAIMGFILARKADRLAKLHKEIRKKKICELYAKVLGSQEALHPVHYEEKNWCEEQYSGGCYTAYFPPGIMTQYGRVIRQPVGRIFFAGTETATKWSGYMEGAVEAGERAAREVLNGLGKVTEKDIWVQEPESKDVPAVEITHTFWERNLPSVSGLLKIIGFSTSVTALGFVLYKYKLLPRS
Experiment: Inhibition of recombinant human MAO-A expressed in baculovirus infected BTI insect cells at 10 uM preincubated for 30 mins followed by addition of p-tyramine as substrate measured over 45 mins by Amplex Red MAO assay relative to control
Settings: 0.75 h
measured-quantity: inhibition at 10 µM (%)
Enter your answer as a number in %; do not include the unit.

## Input Identify measured inhibition at 10 µM associated with `Cn1c(=O)c2c(nc3n2CCN(c2cccc(F)c2)C3)n(C)c1=O`
## Output 8

## Input // Input: `COc1cccc(N2CCn3c(nc4c3c(=O)n(C)c(=O)n4C)C2)c1` . Output its inhibition at 10 µM only.
## Output 3

## Input Fill in reported inhibition at 10 µM for this entry: `COc1ccc(Br)cc1CCN1CCn2c(nc3c2c(=O)n(C)c(=O)n3C)C1`
## Output 34

## Input Tell me inhibition at 10 µM reported for `Cn1c(=O)c2c(nc3n2CCN(CCCc2ccccc2)C3)n(C)c1=O`
## Output 9

## Input Kindly indicate its recorded inhibition at 10 µM. Item: `Cn1c(=O)c2c(nc3n2CCN(CCc2ccccc2)C3)n(C)c1=O`
## Output -12

## Input Quickly give me recorded inhibition at 10 µM for `Cn1c(=O)c2c(nc3n2CCN(Cc2csc(-c4ccc(Cl)cc4)n2)C3)n(C)c1=O`
## Output 3

## Input Note down inhibition at 10 µM recorded for `Cn1c(=O)c2c(nc3n2CCN(CCc2ccc(Cl)cc2Cl)C3)n(C)c1=O`
## Output 15

## Input Query inhibition at 10 µM for `Cn1c(=O)c2c(nc3n2CCN(c2ccccc2)C3)n(C)c1=O`
## Output -1

## Input Quote inhibition at 10 µM reported for `Cn1c(=O)c2c(nc3n2CCN(CCOc2ccccc2)C3)n(C)c1=O` please.
## Output 11

## Input Supply reported inhibition at 10 µM belonging to this compound: CC(CN1CCn2c(nc3c2c(=O)n(C)c(=O)n3C)C1)c1ccccc1 (stereo not given)
## Output 23
